Value source: ChEMBL document CHEMBL2407058

Tested on: Plasmodium falciparum
runDescription: Antiplasmodial activity against erythrocytic stage of chloroquine-resistant Plasmodium falciparum IndoChina W2 infected in human A positive RBC after 48 hrs by [3H]hypoxanthine incorporation assay
Type: functional, organism-based
Recorded IC50, one value per entry.
Lab book: enter the figure in nM, no units written.

[N-]=[N+]=NCCNc1ccnc2cc(Cl)ccc12	290
OCCNc1ccnc2cc(Cl)ccc12	550
[N-]=[N+]=NCc1cccc(Nc2ccnc3cc(Cl)ccc23)c1	550
O=C(N[C@@H](c1ccccc1)[C@@H](O)C(=O)OCCCNc1ccnc2cc(Cl)ccc12)c1ccccc1	130
OCc1ccccc1Nc1ccnc2cc(Cl)ccc12	40

Lab note: need IC50 for O=C(N[C@@H](c1ccccc1)[C@@H](O)C(=O)NCc1cn(CCCNc2ccnc3cc(Cl)ccc23)nn1)c1ccccc1 on Plasmodium falciparum, anyone have it? 1690

Note, next up: O=C(N[C@@H](c1ccccc1)[C@@H](O)C(=O)NCCCNc1ccnc2cc(Cl)ccc12)c1ccccc1 480

Note, next up: OCCCNc1ccnc2cc(Cl)ccc12 410

Note, next up: CC(=O)O[C@@H](C(=O)O[C@@H]1O[C@@H]2O[C@@]3(C)CC[C@H]4[C@H](C)CC[C@@H]([C@H]1C)[C@@]24OO3)[C@@H](NC(=O)c1ccccc1)c1ccccc1 5

###

Recorded IC50, one value per entry.
Tested on: Plasmodium falciparum
runDescription: Antiplasmodial activity against erythrocytic stage of chloroquine-resistant Plasmodium falciparum IndoChina W2 infected in human A positive RBC after 48 hrs by [3H]hypoxanthine incorporation assay
Assay type: functional, organism-based
Lab book: enter the figure in nM, no units written.

Here is how some compounds turned out for IC50.
CC(=O)O[C@@H](C(=O)OCCNc1ccnc2cc(Cl)ccc12)[C@@H](NC(=O)c1ccccc1)c1ccccc1	220
[N-]=[N+]=NCCCNc1ccnc2cc(Cl)ccc12	170
O=C(N[C@@H](c1ccccc1)[C@@H](O)C(=O)NCc1cn(CCNc2ccnc3cc(Cl)ccc23)nn1)c1ccccc1	2710

Data request, read-out IC50, for O=C(N[C@@H](c1ccccc1)[C@@H](O)C(=O)NCc1cn(Cc2ccccc2Nc2ccnc3cc(Cl)ccc23)nn1)c1ccccc1 1050
